Quick reference for IC50 among some compounds
- Measured Target: Human MMP1 (Homo sapiens, UniProt P03956)
- Construct: purchased Calbiochem 444208
- Sequence (P03956 100-469): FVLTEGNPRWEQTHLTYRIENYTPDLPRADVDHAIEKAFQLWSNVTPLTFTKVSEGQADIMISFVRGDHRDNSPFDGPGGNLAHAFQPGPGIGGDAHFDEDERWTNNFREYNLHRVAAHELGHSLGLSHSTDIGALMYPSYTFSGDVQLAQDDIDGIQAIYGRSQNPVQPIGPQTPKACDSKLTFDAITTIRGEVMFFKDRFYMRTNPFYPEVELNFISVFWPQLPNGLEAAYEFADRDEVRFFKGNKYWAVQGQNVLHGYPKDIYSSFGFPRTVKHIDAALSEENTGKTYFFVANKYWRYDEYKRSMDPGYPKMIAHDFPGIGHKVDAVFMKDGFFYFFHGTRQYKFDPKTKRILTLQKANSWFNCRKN
- Assay Explanation: MMP1 inhibition experiment
- Type: biochemical
- Setup Conditions: read-out: IC50 value MMP-1

Compound | Measured Target | Inequality Symbol | IC50, µM
CCC(CC)CN1CCC(CC(CS(=O)(=O)c2ccc(OCc3cc(C)nc4ccccc34)cc2)N(O)C=O)CC1 (stereo not shown) | Human MMP1 (Homo sapiens, UniProt P03956) | > | 100
CC(=C1CCOCC1)C(CS(=O)(=O)c1ccc(OCc2cc(C)nc3ccccc23)cc1)N(O)C=O (stereo not shown) | Human MMP1 (Homo sapiens, UniProt P03956) | > | 100
Cc1cc(COc2ccc(S(=O)(=O)CC(CC3CCC(=NO)CC3)N(O)C=O)cc2)c2ccccc2n1 (stereo not shown) | Human MMP1 (Homo sapiens, UniProt P03956) | = | 50
CCC(CC)C(=O)N1CCC(=CC(CS(=O)(=O)c2ccc(OCc3cc(C)nc4ccccc34)cc2)N(O)C=O)C(C)C1 (stereo not shown) | Human MMP1 (Homo sapiens, UniProt P03956) | = | 64
Cc1ccccc1C(CS(=O)(=O)c1ccc(OCc2ccc3ccccc3n2)cc1)N(O)C=O (stereo not shown) | Human MMP1 (Homo sapiens, UniProt P03956) | = | 92
Cc1cc(COc2ccc(S(=O)(=O)CC(CC3CCOCC3)N(O)C=O)cc2)c2ccccc2n1 (stereo not shown) | Human MMP1 (Homo sapiens, UniProt P03956) | > | 100
Cc1cc(COc2ccc(S(=O)(=O)CC(C=C3CCN(C(=O)c4ccccc4)CC3)N(O)C=O)cc2)c2ccccc2n1 (stereo not shown) | Human MMP1 (Homo sapiens, UniProt P03956) | = | 35

Reference for the values: patent US7511144B2
